# relative viability per record follows
# Tested on: RD
# assay-method-text: relative viability vs DMSO control (72 h) (fraction); higher = more viable cells
# test-conditions: 0.04115 µM

[
  {
    "structure-string": "NC(=O)c1cccc2cn(-c3ccc([C@@H]4CCCNC4)cc3)nc12",
    "subject-of-test": "RD",
    "relative viability": 1.12
  },
  {
    "structure-string": "Cc1nc(Nc2ncc(C(=O)Nc3c(C)cccc3Cl)s2)cc(N2CCN(CCO)CC2)n1",
    "subject-of-test": "RD",
    "relative viability": 0.775
  },
  {
    "structure-string": "COc1cc2nccc(Oc3ccc(NC(=O)NC4CC4)c(Cl)c3)c2cc1C(N)=O",
    "subject-of-test": "RD",
    "relative viability": 1.02
  },
  {
    "structure-string": "CCN(c1cc(-c2ccc(CN3CCOCC3)cc2)cc(C(=O)NCc2c(C)cc(C)[nH]c2=O)c1C)C1CCOCC1",
    "subject-of-test": "RD",
    "relative viability": 1.03
  },
  {
    "structure-string": "Cc1c(F)cc(C(=O)NC2CC2)cc1-c1ccc(C(=O)NCC(C)(C)C)cn1",
    "subject-of-test": "RD",
    "relative viability": 1.13
  },
  {
    "structure-string": "COc1cc(Nc2c(C#N)cnc3cc(OCCCN4CCN(C)CC4)c(OC)cc23)c(Cl)cc1Cl",
    "subject-of-test": "RD",
    "relative viability": 1.14
  },
  {
    "structure-string": "C#Cc1cccc(Nc2ncnc3cc(OCCOC)c(OCCOC)cc23)c1",
    "subject-of-test": "RD",
    "relative viability": 1.09
  },
  {
    "structure-string": "Cc1cn(-c2cc(NC(=O)c3ccc(C)c(Nc4nccc(-c5cccnc5)n4)c3)cc(C(F)(F)F)c2)cn1",
    "subject-of-test": "RD",
    "relative viability": 1.12
  },
  {
    "structure-string": "Cc1ccc(C(=O)OCc2ccc([C@@H](CN)C(=O)Nc3ccc4cnccc4c3)cc2)c(C)c1",
    "subject-of-test": "RD",
    "relative viability": 1.14
  },
  {
    "structure-string": "NC(=O)c1cnc2[nH]ccc2c1N[C@@H]1[C@@H]2CC3C[C@H]1C[C@@](O)(C3)C2",
    "subject-of-test": "RD",
    "relative viability": 1.05
  }
]
